Assay: 1-Octanol-aqueous phosphate buffer partition coefficient, log P of the compound at pH 7.35
Format: physicochemical
Class label 1: logD at least 2. Class label 0: logD below 2.

Decide: logD of CN1C(=O)C(OCC(O)CO)N=C(c2ccccc2)c2cc(Cl)ccc21 (stereo unspecified) >= 2?
label 0

Please give the result for CC1(C)OCC(COC2N=C(c3ccccc3)c3cc(Cl)ccc3NC2=O)O1 (stereo unspecified) too.
label 1

Please give the result for CNC1=Nc2ccc(Cl)cc2C(c2ccccc2)=[N+]([O-])C1 [CHLORDIAZEPOXIDE] too.
label 1

Please give the result for CC1(C)OCC(COC2N=C(c3ccccc3Cl)c3cc(Cl)ccc3NC2=O)O1 (stereo unspecified) too.
label 1

Please give the result for `CN1CCN=C(c2ccccc2)c2cc(Cl)ccc21` too.
label 1

Please give the result for O=C1Nc2ccc(Cl)cc2C(c2ccccc2)=NC1OCC(O)CO (stereo unspecified) too.
label 0

Please give the result for CN1C(=O)C(OCC2COC(C)(C)O2)N=C(c2ccccc2)c2cc(Cl)ccc21 (stereo unspecified) too.
label 1

###

Assay: Toxicity in po dosed albino Swiss-Webster mouse
Format: organism-based
Details: in vivo
readout.name: LD50 (µmol/kg)
Express it in µmol/kg; write the number only.

Which value of LD50 has been reported for O=C1Nc2ccc(Cl)cc2C(c2ccccc2)=NC1OC(=O)C(Cl)(Cl)Cl (centres undefined) in the records?
6850

Please give the result for O=C1Nc2ccc(Cl)cc2C(c2ccccc2)=NC1OCCO (centres undefined) too.
18100

Please give the result for O=C1Nc2ccc(Cl)cc2C(c2ccccc2Cl)=NC1OCC(O)CO (centres undefined) too.
7820

Please give the result for CN1C(=O)C(OCCO)N=C(c2ccccc2)c2cc(Cl)ccc21 (centres undefined) too.
17400

Please give the result for CN1CCN=C(c2ccccc2)c2cc(Cl)ccc21 [MEDAZEPAM] too.
5240

Please give the result for O=C1Nc2ccc(Cl)cc2C(c2ccccc2)=NC1OCC(O)CO (centres undefined) too.
16600

Please give the result for CC(=O)OC[C@H]1O[C@@H](OCCOC2N=C(c3ccccc3)c3cc(Cl)ccc3NC2=O)[C@H](OC(C)=O)[C@@H](OC(C)=O)[C@@H]1OC(C)=O (mixture of isomers) too.
17200

Please give the result for CC(=O)OC[C@H]1O[C@H](OCCOC2N=C(c3ccccc3)c3cc(Cl)ccc3NC2=O)[C@H](OC(C)=O)[C@@H](OC(C)=O)[C@@H]1OC(C)=O (mixture of isomers) too.
17300

Please give the result for CN1C(=O)C(OCC2COC(C)(C)O2)N=C(c2ccccc2)c2cc(Cl)ccc21 (centres undefined) too.
9160

###

Exercise: for every item that follows, state its recorded logD.
Test: 1-Octanol-aqueous phosphate buffer partition coefficient, log P of the compound at pH 7.35
Format: physicochemical
Respond with the number and no other words.

Which value of logD has been reported for O=C1Nc2ccc(Cl)cc2C(c2ccccc2)=NC1OCCO (centres undefined) in the records?
1.99

Please give the result for O=C1Nc2ccc(Cl)cc2C(c2ccccc2Cl)=NC1OCC(O)CO (centres undefined) too.
1.96

Please give the result for O=C1Nc2ccc(Cl)cc2C(c2ccccc2Cl)=NC1OCCO (centres undefined) too.
2.04

Please give the result for CN1C(=O)C(OCCO)N=C(c2ccccc2)c2cc(Cl)ccc21 (centres undefined) too.
1.98
